Give melting point for every item shown.

- CC(=O)CS(=O)(=O)c1ccc(C)cc1: 52 to 54 °C
- CCOc1cccc(NC(C)=O)c1: 97 °C

Quick batch: melting point for everything below.
1. FC(F)(F)c1ccc(Br)nc1
2. Oc1ccccc1-c1ccccc1O
3. C=CC(=O)Oc1c(Br)cc(Cl)c2cccnc12

### Response
1. 46 to 47 °C
2. 109 °C
3. 100 °C

Quick batch: melting point for everything below.
1. CCO[C@H]1OC(C(N)=O)=CC[C@H]1Br
2. Fc1ccccc1-c1ccccc1F
3. Nc1cc(Cl)c(C(F)(F)F)cc1[N+](=O)[O-]

### Response
1. 141 to 142 °C
2. 112 to 114 °C
3. 113 to 114 °C

----------
reportedProperty: melting point (°C)
Give bare numbers, in °C.

• O=C(O)c1ccc(F)cc1C(F)(F)F = 123

Quick batch: melting point for everything below.
1. CN(C)c1ccc(C(O)c2ccc(N(C)C)cc2)cc1
2. Cc1ccc(S(=O)c2ccc(C)cc2)cc1
3. COc1cc2c(cc1O)[C@H](C)N(C)CC2

### Response
101
95
182

Quick batch: melting point for everything below.
1. CC(C)(C)OC(=O)N[C@@H](Cc1ccc(Cl)cc1)C(=O)O
2. CCOC(=O)C1=C(NC(=O)CCl)Oc2c(c(=O)oc3ccccc23)C1c1ccc(Br)cc1 (stereo not given)
3. O=[N+]([O-])c1cc([N+](=O)[O-])cc(C(F)(F)F)c1

### Response
110
158
51

----------
reportedProperty: melting point

In the examples that follow, each entry is paired with its recorded melting point.
- S=C=NCC(c1ccccc1)c1ccccc1: 36 to 38 °C
- CC12CCC3C(C1CCC2=O)C1(CC2CC(=O)CCC23C)OCCO1 (stereo not drawn): 205 to 208 °C

Now let's try a different one.
### Prompt Tell us which melting point value is on record for "Cc1ccccc1C(=O)Cc1ccccc1C(=O)OC(C)(C)C"
### Response 30 to 36 °C

----------
Give melting point for every item shown.

In the examples that follow, each entry is paired with its recorded melting point.
* COCC(CCC(=O)OC)N1CC=CC1 (stereo unspecified) | 144 to 146 °C
* O=Cc1ccc(-c2nccs2)cc1 | 90 to 91 °C
* COC(=O)CCC(C)C1CCC2C3C=CC4CC(OC(C)=O)CCC4(C)C3CC(OC(C)=O)C12C (stereo unspecified) | 86.5 to 87.5 °C
* COC(=O)C1(Br)CCC(Br)(C(=O)OC)CC1 (stereo unspecified) | 148 to 150 °C
* CCN(CC)c1ccc2nc3c4ccccc4c(=O)cc-3oc2c1 | 203 to 205 °C

Now let's try a different one.
### Prompt Tell us which melting point value is on record for "Brc1cc(Br)c(Oc2cc(Br)c(Br)cc2Br)cc1Br"
### Response 160 to 163 °C

----------
reportedProperty: melting point

Quick batch: melting point for everything below.
1. CC(=O)NC1=NC(=O)C(=Cc2coc3ccc(Br)cc3c2=O)N1C
2. O=C1Nc2c(Cl)ccc(Cl)c2C1=O

### Response
1: 259 to 261 °C; 2: 251 to 254 °C

### Prompt Tell us which melting point value is on record for "O=C(O)[C@@H]1CCN1"
### Response 206 to 207 °C
